target-desc: T1, Recombinant Human DLL4 (delta-like protein 4) (human, UniProt Q9NR61 27-524)
T1 construct: Bought recombinant human DLL4 (R&D Systems Cat#1506-D4/CF) coated on the ELISA plate; also called rHuman DLL4; Delta-like ligand 4
measurement-notes: ELISA, DLL4 coated on plate, 100 nM Fab
Recorded measurements of ELISA Signal-blank (100 nM Fab), one per entry
I only need the number, thanks.

# example entries with known answers
>>> quantitative_readout("Fab VH5-51_IGHD5-18*01>3_IGHJ4*01 G100K/G104T G24T/S28R/G35V (H:KT TRV) & V3-4_IGLJ1*01 V91L/S96P S57W (Fab, V domains shown, Fab made in E. coli: VH in plasmid A (CH1, His6 and Flag tags), VL in plasmid E (lambda CL); also called H:KT TRV & L:LP S57W) VH: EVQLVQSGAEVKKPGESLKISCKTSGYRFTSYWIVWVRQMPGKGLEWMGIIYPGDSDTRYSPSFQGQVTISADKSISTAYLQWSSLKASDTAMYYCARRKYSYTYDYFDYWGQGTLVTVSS VL: QTVVTQEPSFSVSPGGTVTLTCGLSSGSVSTSYYPSWYQQTPGQAPRTLIYSTNTRWSGVPDRFSGSILGNKAALTITGAQADDESDYYCLLYMGPGISYVFGTGTKVTVL")
0.12
>>> quantitative_readout("Fab VH5-51_IGHD5-18*01>3_IGHJ4*01 G100K/G104T G24T/S28R/G35V (H:KT TRV) & V3-4_IGLJ1*01 V91L/S96P T53W (Fab, V domains shown, Fab made in E. coli: VH in plasmid A (CH1, His6 and Flag tags), VL in plasmid E (lambda CL); also called H:KT TRV & L:LP T53W) VH: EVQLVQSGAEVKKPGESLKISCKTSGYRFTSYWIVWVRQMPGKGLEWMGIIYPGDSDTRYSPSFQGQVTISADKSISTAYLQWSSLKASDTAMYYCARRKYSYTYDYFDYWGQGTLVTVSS VL: QTVVTQEPSFSVSPGGTVTLTCGLSSGSVSTSYYPSWYQQTPGQAPRTLIYSWNTRSSGVPDRFSGSILGNKAALTITGAQADDESDYYCLLYMGPGISYVFGTGTKVTVL")
0.06

## Input Look up ELISA Signal-blank (100 nM Fab): Fab VH5-51_IGHD5-18*01>3_IGHJ4*01 G100K/G104T G24T/S28R/G35V (H:KT TRV) & V3-4_IGLJ1*01 V91L/S96P S57D (Fab, V domains shown, Fab made in E. coli: VH in plasmid A (CH1, His6 and Flag tags), VL in plasmid E (lambda CL); also called H:KT TRV & L:LP S57D) VH: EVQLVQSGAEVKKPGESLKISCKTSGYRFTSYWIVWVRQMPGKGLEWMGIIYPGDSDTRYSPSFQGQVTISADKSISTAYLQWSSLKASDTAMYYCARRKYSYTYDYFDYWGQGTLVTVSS VL: QTVVTQEPSFSVSPGGTVTLTCGLSSGSVSTSYYPSWYQQTPGQAPRTLIYSTNTRDSGVPDRFSGSILGNKAALTITGAQADDESDYYCLLYMGPGISYVFGTGTKVTVL
## Output 0.17

## Input Input Fab VH5-51_IGHD5-18*01>3_IGHJ4*01 G100K/G104T G24T/S28R/G35V (H:KT TRV) & V3-4_IGLJ1*01 V91L/S96P S57F (Fab, V domains shown, Fab made in E. coli: VH in plasmid A (CH1, His6 and Flag tags), VL in plasmid E (lambda CL); also called H:KT TRV & L:LP S57F) VH: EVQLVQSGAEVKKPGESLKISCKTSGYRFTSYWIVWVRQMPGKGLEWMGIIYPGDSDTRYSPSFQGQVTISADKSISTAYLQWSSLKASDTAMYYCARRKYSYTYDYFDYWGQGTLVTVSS VL: QTVVTQEPSFSVSPGGTVTLTCGLSSGSVSTSYYPSWYQQTPGQAPRTLIYSTNTRFSGVPDRFSGSILGNKAALTITGAQADDESDYYCLLYMGPGISYVFGTGTKVTVL
## Output 0.1

## Input Input Fab VH5-51_IGHD5-18*01>3_IGHJ4*01 G100K/G104T G24T/S28R/G35V (H:KT TRV) & V3-4_IGLJ1*01 V91L/S96P S57T (Fab, V domains shown, Fab made in E. coli: VH in plasmid A (CH1, His6 and Flag tags), VL in plasmid E (lambda CL); also called H:KT TRV & L:LP S57T) VH: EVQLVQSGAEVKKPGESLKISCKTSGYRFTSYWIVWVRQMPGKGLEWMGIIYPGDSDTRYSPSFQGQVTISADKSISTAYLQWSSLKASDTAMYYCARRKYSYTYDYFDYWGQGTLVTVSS VL: QTVVTQEPSFSVSPGGTVTLTCGLSSGSVSTSYYPSWYQQTPGQAPRTLIYSTNTRTSGVPDRFSGSILGNKAALTITGAQADDESDYYCLLYMGPGISYVFGTGTKVTVL
## Output 0.3

## Input Input Fab VH5-51_IGHD5-18*01>3_IGHJ4*01 G100K/G104T G24T/S28R/G35V (H:KT TRV) & V3-4_IGLJ1*01 V91L/S96P S57R (Fab, V domains shown, Fab made in E. coli: VH in plasmid A (CH1, His6 and Flag tags), VL in plasmid E (lambda CL); also called H:KT TRV & L:LP S57R) VH: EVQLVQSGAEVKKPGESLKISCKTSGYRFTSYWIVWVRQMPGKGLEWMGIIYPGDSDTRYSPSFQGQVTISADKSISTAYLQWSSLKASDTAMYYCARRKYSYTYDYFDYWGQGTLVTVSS VL: QTVVTQEPSFSVSPGGTVTLTCGLSSGSVSTSYYPSWYQQTPGQAPRTLIYSTNTRRSGVPDRFSGSILGNKAALTITGAQADDESDYYCLLYMGPGISYVFGTGTKVTVL
## Output 0.18

## Input Input Fab VH5-51_IGHD5-18*01>3_IGHJ4*01 G100K/G104T G24T/S28R/G35V (H:KT TRV) & V3-4_IGLJ1*01 V91L/S96P S57E (Fab, V domains shown, Fab made in E. coli: VH in plasmid A (CH1, His6 and Flag tags), VL in plasmid E (lambda CL); also called H:KT TRV & L:LP S57E) VH: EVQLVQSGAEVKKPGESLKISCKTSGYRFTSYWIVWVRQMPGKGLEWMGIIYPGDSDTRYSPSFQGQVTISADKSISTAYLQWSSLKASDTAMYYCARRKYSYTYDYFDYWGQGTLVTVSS VL: QTVVTQEPSFSVSPGGTVTLTCGLSSGSVSTSYYPSWYQQTPGQAPRTLIYSTNTRESGVPDRFSGSILGNKAALTITGAQADDESDYYCLLYMGPGISYVFGTGTKVTVL
## Output 0.2

## Input Input Fab VH5-51_IGHD5-18*01>3_IGHJ4*01 G100K/G104T G24T/S28R/G35V (H:KT TRV) & V3-4_IGLJ1*01 V91L/S96P S57H (Fab, V domains shown, Fab made in E. coli: VH in plasmid A (CH1, His6 and Flag tags), VL in plasmid E (lambda CL); also called H:KT TRV & L:LP S57H) VH: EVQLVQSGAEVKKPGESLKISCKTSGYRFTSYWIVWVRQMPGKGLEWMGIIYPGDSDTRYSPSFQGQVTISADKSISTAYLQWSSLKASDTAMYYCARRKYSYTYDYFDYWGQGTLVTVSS VL: QTVVTQEPSFSVSPGGTVTLTCGLSSGSVSTSYYPSWYQQTPGQAPRTLIYSTNTRHSGVPDRFSGSILGNKAALTITGAQADDESDYYCLLYMGPGISYVFGTGTKVTVL
## Output 0.21

## Input Input Fab VH5-51_IGHD5-18*01>3_IGHJ4*01 G100K/G104T G24T/S28R/G35V (H:KT TRV) & V3-4_IGLJ1*01 V91L/S96P S57N (Fab, V domains shown, Fab made in E. coli: VH in plasmid A (CH1, His6 and Flag tags), VL in plasmid E (lambda CL); also called H:KT TRV & L:LP S57N) VH: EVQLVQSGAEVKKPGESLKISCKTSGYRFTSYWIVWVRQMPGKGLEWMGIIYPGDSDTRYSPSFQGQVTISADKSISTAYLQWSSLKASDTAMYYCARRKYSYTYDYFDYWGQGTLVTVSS VL: QTVVTQEPSFSVSPGGTVTLTCGLSSGSVSTSYYPSWYQQTPGQAPRTLIYSTNTRNSGVPDRFSGSILGNKAALTITGAQADDESDYYCLLYMGPGISYVFGTGTKVTVL
## Output 0.24

## Input Input Fab VH5-51_IGHD5-18*01>3_IGHJ4*01 G100K/G104T G24T/S28R/G35V (H:KT TRV) & V3-4_IGLJ1*01 V91L/S96P S57L (Fab, V domains shown, Fab made in E. coli: VH in plasmid A (CH1, His6 and Flag tags), VL in plasmid E (lambda CL); also called H:KT TRV & L:LP S57L) VH: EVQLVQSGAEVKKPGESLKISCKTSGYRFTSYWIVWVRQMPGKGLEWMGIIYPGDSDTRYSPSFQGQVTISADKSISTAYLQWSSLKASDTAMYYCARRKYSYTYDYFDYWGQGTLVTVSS VL: QTVVTQEPSFSVSPGGTVTLTCGLSSGSVSTSYYPSWYQQTPGQAPRTLIYSTNTRLSGVPDRFSGSILGNKAALTITGAQADDESDYYCLLYMGPGISYVFGTGTKVTVL
## Output 0.3
